assay target: Carbonic anhydrase 1 (Homo sapiens, UniProt P00915)
Sequence (P00915 whole entry): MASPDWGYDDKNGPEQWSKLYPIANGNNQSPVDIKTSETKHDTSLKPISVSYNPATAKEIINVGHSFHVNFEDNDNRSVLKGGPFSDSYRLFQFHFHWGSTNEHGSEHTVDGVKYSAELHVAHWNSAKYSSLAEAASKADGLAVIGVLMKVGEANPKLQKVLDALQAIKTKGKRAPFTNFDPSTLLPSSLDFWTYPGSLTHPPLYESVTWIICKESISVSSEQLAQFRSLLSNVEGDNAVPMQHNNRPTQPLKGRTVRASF
Rule for this label: Satisfied means Ki is less than 400 nM; Not satisfied means Ki is at least 400 nM.

Data request: Regarding `C[C@H](CCC(=O)OCCc1ccc(S(N)(=O)=O)cc1)[C@H]1CC[C@H]2[C@@H]3[C@@H](O)C[C@@H]4C[C@H](O)CC[C@]4(C)[C@H]3CC[C@]12C` , kindly confirm whether its Ki is beneath 400 nM.
Data returned: Satisfied

Data request: Repeat with `C[C@H](CCC(=O)Nc1c(S(N)(=O)=O)cc(S(N)(=O)=O)c(Cl)c1Cl)[C@H]1CC[C@H]2[C@@H]3C(=O)C[C@@H]4CC(=O)CC[C@]4(C)[C@H]3CC(=O)[C@]12C`
Data returned: Satisfied

Data request: Record: `C[C@H](CCC(=O)Oc1ccc2nc(S(N)(=O)=O)sc2c1)[C@H]1CC[C@H]2[C@@H]3CC[C@@H]4C[C@H](O)CC[C@]4(C)[C@H]3CC[C@]12C`
Data returned: Satisfied

Data request: Check `C[C@H](CCC(=O)NNc1ccc(S(N)(=O)=O)cc1)[C@H]1CC[C@H]2[C@@H]3CC[C@@H]4C[C@H](O)CC[C@]4(C)[C@H]3C[C@H](O)[C@]12C` too.
Data returned: Not satisfied

Data request: How about `C[C@H](CCC(=O)Nc1c(S(N)(=O)=O)cc(S(N)(=O)=O)c(Cl)c1Cl)[C@H]1CC[C@H]2[C@@H]3[C@@H](O)C[C@@H]4C[C@H](O)CC[C@]4(C)[C@H]3CC[C@]12C` ?
Data returned: Satisfied

Data request: Queued: `C[C@H](CCC(=O)Nc1cccc(S(N)(=O)=O)c1)[C@H]1CC[C@H]2[C@@H]3[C@@H](O)C[C@@H]4C[C@H](O)CC[C@]4(C)[C@H]3CC[C@]12C`
Data returned: Not satisfied

Data request: What do we get for `C[C@H](CCC(=O)Nc1ccc(S(N)(=O)=O)cc1F)[C@H]1CC[C@H]2[C@@H]3[C@H](O)C[C@@H]4C[C@H](O)CC[C@]4(C)[C@H]3CC[C@]12C` ?
Data returned: Not satisfied

Data request: Next molecule up: `C[C@H](CCC(=O)/N=c1\sc(S(N)(=O)=O)nn1C)[C@H]1CC[C@H]2[C@@H]3[C@H](O)C[C@@H]4C[C@H](O)CC[C@]4(C)[C@H]3CC[C@]12C`
Data returned: Not satisfied

Data request: Subsequent entry: `C[C@H](CCC(=O)Nc1cccc(S(N)(=O)=O)c1)[C@H]1CC[C@H]2[C@@H]3C(=O)C[C@@H]4CC(=O)CC[C@]4(C)[C@H]3CC(=O)[C@]12C`
Data returned: Not satisfied
